Test system: hERG
protocol: Selectivity index ratio of IC50 for human ERG to EC50 for growth inhibition of Trypanosoma brucei bloodstream forms
Type: toxicity
applied-conditions: read-out: Ratio IC50/EC50
value-kind: selectivity ratio

*Q* Which selectivity ratio is reported for this compound? Nc1nc2ccc(C(=O)NCc3ccccc3)cc2s1
*A* > 10

====

protocol: Half-life in BALB/c mouse at 1 mg/kg, iv by LC-MS analysis
Assay type: ADME, organism-based
applied-conditions: in vivo
value-kind: half-life (min)
Could you give me the number in min? Just the number is fine.

*Q* Which half-life is reported for this compound? Nc1nc2ccc(C(=O)NCc3ccccc3)cc2s1
*A* 207
